# system-under-test: T1, cynomolgus monkey GPVI extracellular domain fused at its C-terminus to human IgG1 Fc (GPVI-Fc) (cynomolgus monkey; human)
# T1 construct: also called cyGPVI-2; cyGPVI
# protocol: Competition ELISA (MSD): cynomolgus GPVI-Fc preincubated with Fab, then on coated VitroCol (competitor)
recorded-metric: IC50 (nM)
Express the result in nM but write the number alone.

query: Fill in IC50 for record Fab #4 comprising a modified heavy chain constant region (Fab, V domains shown, Human Fab from the Ylanthia library; produced in HKB11 cells; also called Fab #4 mod; HC) VH: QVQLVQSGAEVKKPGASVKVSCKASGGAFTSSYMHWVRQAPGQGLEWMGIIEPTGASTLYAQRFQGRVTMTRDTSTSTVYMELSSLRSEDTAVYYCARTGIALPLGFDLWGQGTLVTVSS VL: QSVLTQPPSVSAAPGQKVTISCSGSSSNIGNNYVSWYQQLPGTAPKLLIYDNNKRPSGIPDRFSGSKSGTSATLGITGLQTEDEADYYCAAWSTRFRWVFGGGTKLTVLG
result: 8.1

Continuing:
query: Fill in IC50 for record Fab #1 comprising a modified heavy chain constant region (Fab, V domains shown, Human Fab from the Ylanthia library; produced in HKB11 cells; also called Fab #1 mod; HC) VH: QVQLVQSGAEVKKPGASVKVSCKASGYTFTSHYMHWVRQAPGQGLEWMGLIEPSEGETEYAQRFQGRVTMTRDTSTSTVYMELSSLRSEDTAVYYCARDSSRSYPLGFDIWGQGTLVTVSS VL: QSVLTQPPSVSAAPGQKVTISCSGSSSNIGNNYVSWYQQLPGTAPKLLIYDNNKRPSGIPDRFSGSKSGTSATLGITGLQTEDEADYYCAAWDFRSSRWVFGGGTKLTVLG
result: 9.7
